Assay: COS7 lysate on small-molecule microarray, probe aHis, 635 nm (AID 1123);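 further: z-score combines 667nm fluorescence intensity with signal-to-noise per printed compound spot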
Conditions: COS7 cell lysate, fluorescence, higher = more signal

[
  {
    "compound": "CCCCC(CC)C(O)C1C=CC2C(=O)N(C)C(=O)C2N1Nc1ccccc1 (stereo not drawn)",
    "composite z-score": 1.99
  },
  {
    "compound": "COc1cc(NN2C(C(O)c3cc(OC)c(OC)c(OC)c3)C=CC3C(=O)N(C)C(=O)C32)cc(OC)c1OC (stereo not drawn)",
    "composite z-score": 2.77
  },
  {
    "compound": "COC(=O)C(CC#Cc1ccc2c(c1)[C@]1(C(=O)N2)[C@H](c2ccc(O)cc2)N2[C@H](c3ccccc3)[C@H](c3ccccc3)OC(=O)[C@H]2[C@@H]1C(=O)NC[C@H](O)c1ccccc1)C(=O)OC",
    "composite z-score": 1.22
  },
  {
    "compound": "CCOC(=O)C=Cc1cccc(C)c1O",
    "composite z-score": -0.15
  },
  {
    "compound": "CC(C)c1ccc(NN2C(C(O)c3ccc(C#N)cc3)C=CC3C(=O)N(c4ccccc4)C(=O)C32)cc1 (stereo not drawn)",
    "composite z-score": 2.84
  },
  {
    "compound": "CCCCN1CC=CC23O[C@@H]4/C=C\\CCCOC(=O)C4[C@H]2C(=O)N(CCO)[C@@H]3C1=O (stereo partly drawn)",
    "composite z-score": 1.1
  },
  {
    "compound": "COCC(=C=CC[C@H](O)c1ccc(OCCO)cc1)CCO",
    "composite z-score": 0.368
  },
  {
    "compound": "COCCOC(=O)N1C(=O)[C@@]2(c3cc(C#CC4=CCCCC4)ccc31)[C@H](c1ccccc1OCCO)N1[C@H](c3ccccc3)[C@H](c3ccccc3)OC(=O)[C@H]1[C@@H]2C(=O)NC[C@H](O)c1ccccc1",
    "composite z-score": 1.53
  }
]

// data source = PubChem BioAssay
